# System: T1, PSMA Fab (006 PSMA Fab) (biotinylated (site not stated))
# T1 construct: also called Anti-PSMA Fab
# Test Summary: clonal phage ELISA on biotinylated PSMA Fab captured on neutravidin, anti-M13 HRP detection, competitor PSMA antigen
Where no end group is shown, it is not given here.
Field: Phage binding ELISA signal, Anti-PSMA Fab with PSMA antigen. Provide a value for each of the binders that follow.
Give bare numbers.

As a guide, the following entries are already answered.
AYEMCIPAWMCEGF [Phage-2957] :: 0.0905
TTAYCIPPWMCSGF [Phage-2955] :: 0.15
YLQFCKPVWMCTGF [Phage-2956] :: 0.15
VDIQCKPLWMCIGM [Phage-2953] :: 0.0643
IMPKCEPIWMCAGF (cysteine pairing not given here; also: peptide displayed as fusion to phage pIII) [Phage-2952] :: 0.0746

For every listed record, write down its Phage binding ELISA signal, Anti-PSMA Fab with PSMA antigen.
1. ADPVCRPQWMCEGF [Phage-2961]
2. PEFVCKPSWMCQGF [Phage-2959]

Reply text:
0.11
0.0681

Cited source for all entries: patent US20260242478A1
